// provenance: ChEMBL document CHEMBL5053547

- Test summary: Stability in human plasma assessed as half life by LC/MS analysis
- Assay type: ADME, cell-free
Measure: half-life
Please provide the amount together with its unit, number first.

Query string: Let me know recorded half-life for Nc1c(C(=O)Nc2ccc(F)cc2)sc2nc(-c3ccc(OCC(=O)NCCCOCCOCCOCCCNC(=O)COc4cccc5c4C(=O)N(C4CCC(=O)NC4=O)C5=O)cc3)cc(C(F)(F)F)c12 (stereo unspecified) , thanks.
Result string: 1.74 h

----------
- Tested on: MDA-MB-231
- Test summary: Antiproliferative activity against human MDA-MB-231 cells assessed as growth inhibition by MTT assay
- Format: functional
Measure: GI50

Nc1c(C(=O)Nc2ccc(F)cc2)sc2nc(-c3ccc(OCC(=O)NCCCOCCOCCOCCCNC(=O)COc4cccc5c4C(=O)N(C4CCC(=O)NC4=O)C5=O)cc3)cc(C(F)(F)F)c12 (stereo not given) = 16.2 µM
Nc1c(C(=O)Nc2ccc(F)cc2)sc2nc(-c3ccc(OCC(=O)NCCOCCOCCNc4cccc5c4C(=O)N(C4CCC(=O)NC4=O)C5=O)cc3)cc(C(F)(F)F)c12 (stereo not given) = > 50 µM
COc1ccc(-c2cc(C(F)(F)F)c3c(N)c(C(=O)Nc4ccc(F)cc4)sc3n2)cc1 = 27.3 µM
Nc1c(C(=O)Nc2ccc(F)cc2)sc2nc(-c3ccc(OCC(=O)NCCCNc4cccc5c4C(=O)N(C4CCC(=O)NC4=O)C5=O)cc3)cc(C(F)(F)F)c12 (stereo not given) = 45.4 µM

We next turn to a different compound, shown below.
Query string: Respond only with GI50 recorded for Nc1c(C(=O)Nc2ccc(F)cc2)sc2nc(-c3ccc(OCC(=O)NCCCCCCCCNc4cccc5c4C(=O)N(C4CCC(=O)NC4=O)C5=O)cc3)cc(C(F)(F)F)c12 (stereo not given)
Result string: > 50 µM
